molecular target: wild-type HRAS (Homo sapiens, UniProt P01112+P62937); assay: RAS-RAF TR-FRET; details: 25 µmol/L CypA, read-out: EC50, disruption of RAF-RBD binding
Sequence (P01112 1-169): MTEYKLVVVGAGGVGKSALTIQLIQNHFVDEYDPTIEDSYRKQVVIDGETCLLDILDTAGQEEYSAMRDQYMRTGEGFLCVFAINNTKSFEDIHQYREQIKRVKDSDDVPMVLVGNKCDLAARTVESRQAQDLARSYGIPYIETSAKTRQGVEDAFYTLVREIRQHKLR
Sequence (P62937 whole entry): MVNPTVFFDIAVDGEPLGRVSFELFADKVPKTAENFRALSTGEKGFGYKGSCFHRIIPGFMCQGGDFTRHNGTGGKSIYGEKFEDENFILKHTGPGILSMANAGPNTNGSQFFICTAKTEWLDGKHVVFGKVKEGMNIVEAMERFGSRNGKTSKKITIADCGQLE

>  <molecule>
CCn1c(-c2cc(N3CCN(C)CC3)cnc2[C@H](C)OC)c2c3cc(ccc31)-c1csc(n1)C[C@H](NC(=O)[C@H]1C[C@@H]1C)C(=O)N1CCC[C@H](N1)C(=O)OCC(C)(C)C2 [RMC-6236]

>  <EC50, nM>
82

$$$$

---

assay: Mouse blood and tissue PK (LC/MS-MS); assay type: in vivo; settings: mouse, whole blood, po, 25 mg/kg, NCI-H2122 (25 mg/kg), single dose

>  <compound>
CCn1c(-c2cc(N3CCN(C)CC3)cnc2[C@H](C)OC)c2c3cc(ccc31)-c1csc(n1)C[C@H](NC(=O)[C@H]1C[C@@H]1C)C(=O)N1CCC[C@H](N1)C(=O)OCC(C)(C)C2 [RMC-6236]

>  <Cmax>
1110 ng/mL

$$$$

---

molecular target: wild-type NRAS (Homo sapiens, UniProt P01111+P62937); experiment: RAS-RAF TR-FRET; settings: 25 µmol/L CypA, read-out: EC50, disruption of RAF-RBD binding
Sequence (P01111 1-169, one chain of several): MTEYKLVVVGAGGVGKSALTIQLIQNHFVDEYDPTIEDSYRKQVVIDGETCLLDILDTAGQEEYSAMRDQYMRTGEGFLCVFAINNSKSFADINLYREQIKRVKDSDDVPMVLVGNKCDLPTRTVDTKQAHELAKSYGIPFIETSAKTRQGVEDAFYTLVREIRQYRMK
pEC50: −log10 of the molar value.
property: pEC50

>  <smiles>
CCn1c(-c2cc(N3CCN(C)CC3)cnc2[C@H](C)OC)c2c3cc(ccc31)-c1csc(n1)C[C@H](NC(=O)[C@H]1C[C@@H]1C)C(=O)N1CCC[C@H](N1)C(=O)OCC(C)(C)C2

>  <property>
pEC50

>  <obs.value>
7.18

$$$$

---

Assay: Mouse blood and tissue PK (LC/MS-MS)
Format: in vivo
Details: mouse, whole blood, po, 25 mg/kg, KP-4 (25 mg/kg), single dose; read-out: Blood AUClast
Method: For single-dose PKPD study, mice were randomized and assigned into groups (n = 3/dose/time point). […] Blood and tissues, including the tumor, brain, colon, ear skin, and muscle, were harvested at indicated time points. […] The whole blood, tumor, brain, colon, and ear skin concentrations of RMC-6236 were determined using liquid chromatography–tandem mass spectrometry (LC/MS-MS) methods. […] Concentrations reported as below the quantification limit were treated as zero for PK analysis. […]
property: AUC(0-t) (ng·h/mL)

>  <smiles>
CCn1c(-c2cc(N3CCN(C)CC3)cnc2[C@H](C)OC)c2c3cc(ccc31)-c1csc(n1)C[C@H](NC(=O)[C@H]1C[C@@H]1C)C(=O)N1CCC[C@H](N1)C(=O)OCC(C)(C)C2

>  <property>
AUC(0-t)

>  <obs.value>
12500

$$$$

---

assay: Mouse blood and tissue PK (LC/MS-MS); format: in vivo; conditions: BALB/c nude, mouse, tumor, oral, 0.3 mg/kg, Capan-2, study Capan-2 #3_PHA 2020, 0.3 mg/kg, 24h; read-out: RMC-6236 (nM) Tumor

>  <smiles>
CCn1c(-c2cc(N3CCN(C)CC3)cnc2[C@H](C)OC)c2c3cc(ccc31)-c1csc(n1)C[C@H](NC(=O)[C@H]1C[C@@H]1C)C(=O)N1CCC[C@H](N1)C(=O)OCC(C)(C)C2

>  <concentration at 24 h (nM)>
5.5

$$$$

---

test: Mouse blood and tissue PK (LC/MS-MS); format: in vivo; conditions: mouse, whole blood, oral, 50 mg/kg, Model Validation Dataset; 50mg/kg_study6; 1 h; read-out: Blood Concentration
property: concentration at 1 h (nM)

>  <smiles>
CCn1c(-c2cc(N3CCN(C)CC3)cnc2[C@H](C)OC)c2c3cc(ccc31)-c1csc(n1)C[C@H](NC(=O)[C@H]1C[C@@H]1C)C(=O)N1CCC[C@H](N1)C(=O)OCC(C)(C)C2

>  <property>
concentration at 1 h

>  <obs.value>
1820

$$$$
